# System: angiogenesis genes in dermal microvascular endothelial cells
# experiment_notes: Real time RT-PCR of angiogenesis gene expression during endothelial tube formation
# Type: cell-based
# run_parameters: 1 μM SM, 24 hours
property_measured: Log2 fold-change of gene expression: PNMT

See these solved cases before continuing.
Request: Quick one: Log2 fold-change of gene expression: PNMT for CCC(=O)OCN1C(=O)C=CC1=O ?
Result: 0.7

Request: Note, next up: COc1cc2cc(c1Cl)N(C)C(=O)CC(OC(=O)C(C)C)C1(C)OC1C(C)C1CC(O)(NC(=O)O1)C(OC)/C=C/C=C(\C)C2 (stereo not drawn)
Result: 0.1

Request: Note, next up: COc1ccc(CC2C(=O)NC(C)C(=O)N(C)C3Cc4ccc(cc4)Oc4cc(ccc4O)CC(C(=O)NC(C)C(=O)NC(C)C(=O)N2C)N(C)C3=O)cc1 (stereo not drawn)
Result: −0.1

Request: Note, next up: O=C1C(=Cc2ccccc2)C(NC2CCCCC2)c2ccccc21 (stereo not drawn)
Result: −0.4

Request: Note, next up: CC1CCN(CC[S-])CC1.O.O.[Cl][Pt+]
Result: −0.7

For the next question, use this compound.
Request: Quick one: Log2 fold-change of gene expression: PNMT for COC(=O)C1CC(=O)C(C(=O)OC)CC1=O (stereo not drawn) ?
Result: 1.1
